quantity: melting point

INSERT INTO measurements (molecule, quantity, value_observed) VALUES
  ('O=S(=O)(c1ccc(F)cc1F)N(C1=NOC2(CCCCCCC2)C1)S(=O)(=O)c1ccc(F)cc1F', 'melting point', '61 to 62 °C'),
  ('O=S(=O)(c1ccccc1)N(C1=NOC2(CCCCCCC2)C1)S(=O)(=O)c1ccccc1', 'melting point', '139 to 141 °C'),
  ('O=S(=O)(c1ccc2c(c1)OCCO2)N(C1=NOC2(CCCCCCC2)C1)S(=O)(=O)c1ccc2c(c1)OCCO2', 'melting point', '191 to 193 °C'),
  ('Cc1ccc(S(=O)(=O)N(C2=NOC3(CCCCCCC3)C2)S(=O)(=O)c2ccc(C)cc2)cc1', 'melting point', '151 to 153 °C'),
  ('Cc1cc(C)c(S(=O)(=O)N(C2=NOC3CCCCCCC23)S(=O)(=O)c2c(C)cc(C)cc2C)c(C)c1 (centres unmarked)', 'melting point', '148 to 149 °C'),
  ('O=S(=O)(Cc1ccccc1)N(C1=NOC2CCCCCCC12)S(=O)(=O)Cc1ccccc1 (centres unmarked)', 'melting point', '198 to 199 °C'),
  ('O=S(=O)(c1ccc2c(c1)OCCO2)N(C1=NOC2CCCCCCC12)S(=O)(=O)c1ccc2c(c1)OCCO2 (centres unmarked)', 'melting point', '129 to 130 °C'),
  ('O=S(=O)(c1cccnc1)N(C1=NOC2CCCCCCC12)S(=O)(=O)c1cccnc1 (centres unmarked)', 'melting point', '150 to 151 °C'),
  ('O=S(=O)(c1cccs1)N(C1=NOC2CCCCCCC12)S(=O)(=O)c1cccs1 (centres unmarked)', 'melting point', '131 to 132 °C'),
  ('O=S(=O)(c1cccnc1)N(C1=NOC2(CCCCCCC2)C1)S(=O)(=O)c1cccnc1', 'melting point', '151 to 152 °C'),
  ('O=[N+]([O-])c1ccccc1S(=O)(=O)N(C1=NOC2(CCCCCCC2)C1)S(=O)(=O)c1ccccc1[N+](=O)[O-]', 'melting point', '155 to 157 °C'),
  ('CS(=O)(=O)N(C1=NOC2(CCCCCCC2)C1)S(C)(=O)=O', 'melting point', '139 to 141 °C'),
  ('O=S(=O)(c1ccc2ccccc2c1)N(C1=NOC2CCCCCCC12)S(=O)(=O)c1ccc2ccccc2c1 (centres unmarked)', 'melting point', '160 to 162 °C'),
  ('O=S(=O)(c1cccs1)N(C1=NOC2(CCCCCCC2)C1)S(=O)(=O)c1cccs1', 'melting point', '147 °C'),
  ('Cc1cc(C)c(S(=O)(=O)N(C2=NOC3(CCCCCCC3)C2)S(=O)(=O)c2c(C)cc(C)cc2C)c(C)c1', 'melting point', '180 to 182 °C'),
  ('O=S(=O)(Cc1ccccc1)N(C1=NOC2(CCCCCCC2)C1)S(=O)(=O)Cc1ccccc1', 'melting point', '176 to 177 °C'),
  ('O=S(=O)(c1ccc2ccccc2c1)N(C1=NOC2(CCCCCCC2)C1)S(=O)(=O)c1ccc2ccccc2c1', 'melting point', '160 to 161 °C'),
  ('O=S(=O)(c1ccccc1)N(C1=NOC2CCCCCCC12)S(=O)(=O)c1ccccc1 (centres unmarked)', 'melting point', '107 to 108 °C'),
  ('O=[N+]([O-])c1ccc(S(=O)(=O)N(C2=NOC3CCCCCCC23)S(=O)(=O)c2ccc([N+](=O)[O-])cc2)cc1 (centres unmarked)', 'melting point', '139 to 140 °C'),
  ('O=S(=O)(c1ccc(F)cc1F)N(C1=NOC2CCCCCCC12)S(=O)(=O)c1ccc(F)cc1F (centres unmarked)', 'melting point', '129 to 131 °C'),
  ('O=[N+]([O-])c1ccc(S(=O)(=O)N(C2=NOC3(CCCCCCC3)C2)S(=O)(=O)c2ccc([N+](=O)[O-])cc2)cc1', 'melting point', '178 to 180 °C'),
  ('Cc1ccc(S(=O)(=O)N(C2=NOC3CCCCCCC23)S(=O)(=O)c2ccc(C)cc2)cc1 (centres unmarked)', 'melting point', '113 to 114 °C'),
  ('O=[N+]([O-])c1ccccc1S(=O)(=O)N(C1=NOC2CCCCCCC12)S(=O)(=O)c1ccccc1[N+](=O)[O-] (centres unmarked)', 'melting point', '153 to 154 °C');

Where do the numbers come from? From paper PMC10341786.
